Hey, just so you know, these numbers are from the supplement of paper PMC10567573.

B1: ZBTB22 (parent)
chain: RPFDCPVCNKKFKMKHHLTEHMKT

- Variants of: B1
- ASSAY_REMARKS: protein stability index of a GFP-peptide fusion (GPS, HEK-293T) (PSI 1-6); higher = more stable;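 note: lentivirally expressed fusions sorted by FACS into six bins by GFP to DsRed ratio, PSI derived from sequencing read proportions per bin multiplied by bin number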
- CONDITION_LABEL: c terminus: a fixed tail appended
MEASURE: protein stability index
Kindly provide the number alone.

Examples with their reported protein stability index follow.
1) TPFDCPVCNKKFKMKHHLTEHMKT [R1T] = 2.96
2) RPFDNPVCNKKFKMKHHLTEHMKT [C5N] = 3

// below: protein stability index requested for another variant
Prompt: Return protein stability index for the following variant: RPFDCPVCNKKFKMKHHLTEHEKT [M22E]
Completion: 3
